Biological target: histamine H1 receptor (Cavia porcellus, UniProt P31389)
Construct: from tissue; host or cells: guinea pig cerebellum membranes
Sequence (P31389 whole entry): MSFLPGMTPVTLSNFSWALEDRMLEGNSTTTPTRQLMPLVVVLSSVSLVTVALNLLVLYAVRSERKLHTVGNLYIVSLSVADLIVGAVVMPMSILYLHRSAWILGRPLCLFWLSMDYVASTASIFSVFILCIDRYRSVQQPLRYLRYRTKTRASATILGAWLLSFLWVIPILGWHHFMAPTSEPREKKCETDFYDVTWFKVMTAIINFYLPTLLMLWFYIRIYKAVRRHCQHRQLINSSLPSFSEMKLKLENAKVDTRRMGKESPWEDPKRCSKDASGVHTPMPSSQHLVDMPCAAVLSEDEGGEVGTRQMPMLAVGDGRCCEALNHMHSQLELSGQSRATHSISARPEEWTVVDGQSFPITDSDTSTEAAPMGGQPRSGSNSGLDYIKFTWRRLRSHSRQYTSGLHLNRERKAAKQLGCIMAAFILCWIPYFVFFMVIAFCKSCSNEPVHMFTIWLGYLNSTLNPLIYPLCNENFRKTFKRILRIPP
Assay: Binding study using 3H-pyrilamine (histamine H1 receptor binding)
Parameters: species or system guinea pig
Settings: read-out: (%) Inhibition (3H-pyrilamine binding)
Task for the reader: assign each of the following compounds its reported inhibition at 1 µM.
# number only, unit % dropped from output

Query string: Fill blank: measured inhibition at 1 µM of the compound O=C(O)c1ccc2c(c1)C(SCCN1CCC(Cc3ccccc3)CC1)c1ccccc1CO2 (centres unmarked) [Compound 38b] is ____.
Result string: 92

Query string: Entry to check: CN(C)CCSC1c2ccccc2COc2ccc(C(=O)O)cc21 (centres unmarked) [Compound (A), reference compound]
Result string: 88

Query string: Then what about the compound O=C(O)c1ccc2c(c1)C(SCCN1CCN(c3ccccc3)CC1)c1ccccc1CO2 (centres unmarked) [Compound 1b] ?
Result string: 68

Query string: // next record O=C(O)c1ccc2c(c1)C(SCCN1CCN(S(=O)(=O)c3cccs3)CC1)c1ccccc1CO2 (centres unmarked) [Compound 25b]
Result string: 95

Query string: Another compound: O=C(O)c1ccc2c(c1)C(SCCN1CCN(Cc3ccccc3)CC1)c1ccccc1CO2 (centres unmarked) [Compound 11b]
Result string: 95

---

Molecular target: TXA2 receptor (Cavia porcellus, UniProt A0A286Y4I8)
Construct: To a washed platelet suspension (1×10^8 platelets) of guinea pig; endogenous in cells; host or cells: washed guinea pig platelets
Sequence (A0A286Y4I8 1-347): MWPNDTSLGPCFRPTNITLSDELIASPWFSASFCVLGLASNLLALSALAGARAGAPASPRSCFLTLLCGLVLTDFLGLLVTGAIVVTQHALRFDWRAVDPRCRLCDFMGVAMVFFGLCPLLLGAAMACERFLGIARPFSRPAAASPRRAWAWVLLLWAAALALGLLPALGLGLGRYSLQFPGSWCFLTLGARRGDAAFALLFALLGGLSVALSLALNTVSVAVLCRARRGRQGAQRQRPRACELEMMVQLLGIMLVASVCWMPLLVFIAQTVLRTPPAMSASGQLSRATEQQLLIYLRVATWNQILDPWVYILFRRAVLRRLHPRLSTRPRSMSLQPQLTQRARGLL
Assay: Binding study using 3H-U46619 (TXA2 receptor binding activities test)
Set-up: species or system guinea pig
Details: 20 min; test compound 1 μM; 12 nM 3H-U46619; washed guinea pig platelets; 37° C., 20 minutes; read-out: % Inhibition (3H-U46619 binding)
Task for the reader: assign each of the following compounds its reported inhibition at 1 µM.
Give your result in % as a bare value.

Query string: Bench note: what inhibition at 1 µM did CN(C)CCSC1c2ccccc2COc2ccc(C(=O)O)cc21 (stereo not drawn) [Compound (A), reference compound] show?
Result string: -4

Query string: Another compound to check: O=C(O)c1ccc2c(c1)/C(=C/CN1CCN(S(=O)(=O)C=Cc3ccccc3)CC1)c1ccccc1CO2 [Compound E-78b, hydrate]
Result string: 83

Query string: Now try O=C(O)c1ccc2c(c1)/C(=C/CN1CCN(S(=O)(=O)c3cccs3)CC1)c1ccccc1CO2 [Compound E-79b, hydrate] .
Result string: 77

Query string: Can you handle O=C(O)COc1ccc(CCNS(=O)(=O)c2ccccc2)cc1 [BM13177, reference compound] next?
Result string: 31

Query string: Subsequent entry: O=C(O)c1ccc2c(c1)C(SCCN1CCN(S(=O)(=O)c3cccs3)CC1)c1ccccc1CO2 (stereo not drawn) [Compound 25b]
Result string: 78

Query string: Item: O=C(O)c1ccc2c(c1)C(SCCN1CCN(Cc3ccccc3)CC1)c1ccccc1CO2 (stereo not drawn) [Compound 11b]
Result string: 70

---

System: mice
Assay: Acute toxicity test
Format: in vivo
Conditions: ip, mortality observed for seven days
readout name: Acute Toxicity (MLD), minimum lethal dose

Query string: Fill in the blank: the reported Acute Toxicity (MLD), minimum lethal dose of O=C(O)c1ccc2c(c1)/C(=C/CN1CCN(c3ccc(F)cc3)CC1)c1ccccc1CO2 [Compound E-73b, monohydrate] is ____.
Result string: > 100 mg/kg

Query string: Also O=C(O)c1ccc2c(c1)/C(=C/CN1CCN(S(=O)(=O)C=Cc3ccccc3)CC1)c1ccccc1CO2 [Compound E-78b, hydrate] ?
Result string: > 100 mg/kg

Query string: Same again, this time with O=C(O)c1ccc2c(c1)/C(=C/CN1CCN(S(=O)(=O)c3cccs3)CC1)c1ccccc1CO2 [Compound E-79b, hydrate]
Result string: > 100 mg/kg
